# Tested on: Plasmodium falciparum Sir2 (PF13_0152, Sir2A)
# Assay Name: Plasmodium falciparum Sir2A binding compounds – biochemical, small-molecule microarray, 635 nm fluorescence, primary screen (AID 1098);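 further: score merges spot fluorescence intensity with its signal-to-noise ratio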
# Experimental Setup: fluorescence 635 nm, higher = more signal
Test Readout: composite z-score
Give bare numbers.

COCCOC(=O)N1C(=O)[C@@]2(c3cc(C#CCC(C(=O)OC)C(=O)OC)ccc31)[C@H](C(=O)Nc1nc3ccccc3s1)[C@H]1C(=O)O[C@H](c3ccccc3)[C@H](c3ccccc3)N1[C@@H]2c1ccc(O)cc1 ... 1.42

Lab note: each compound below needs its composite z-score filled in.
1. CCOC(=O)C[C@H]1[C@H](OC(=O)Cc2ccc3c(c2)OCO3)[C@@H](NC(=O)Cc2ccc(OC)cc2)c2cc(OCCCO)ccc2N1C(=O)Cc1ccc(OC)cc1
2. O=C(NCc1ccccc1)[C@@H]1c2ccccc2C(=O)N(Cc2ccc(OC(F)(F)F)cc2)[C@H]1c1ccc(CO)cc1
3. O=C1C[C@]2(c3ccc([N+](=O)[O-])cc3)C(=O)N(C3CC3)c3cc(CO)ccc3[C@H]2N1C1CCCCC1
4. CCCCCC1=C2CNC(Cc3ccccc3)(C(=O)OC)C=C2C(C)C1=O (stereo not given)
5. CC(C)N1C(=O)C[C@@](C(=O)NCCN2CCOCC2)(c2ccc([N+](=O)[O-])cc2)[C@H]1c1ccc(CO)cc1
6. CCCCCC1=C2CNC(CC(C)C)(C(=O)OC)C=C2C(C)C1=O (stereo not given)
7. CO[C@H]1O[C@H](CO)[C@@H](OC(=O)Nc2ccccc2-c2ccccc2)[C@H](OC(=O)Nc2ccccc2)[C@H]1OC(=O)Nc1ccccc1
8. C=CC[C@]1(C(=O)NCC(O)CO)COC(c2ccc(OCCCO)cc2)=N1 (stereo not given in full)

Output line:
1: 0.132; 2: 1.34; 3: 0.389; 4: 0.0442; 5: 1.88; 6: 0.452; 7: 1.43; 8: -0.329

Lab note: each compound below needs its composite z-score filled in.
1. C=CCC(OC(C)=O)[C@@H]1[C@@H](N(Cc2ccc(-c3ccccc3)cc2)C(=O)c2cccc3ccccc23)c2cc(OCCCO)ccc2N1C(=O)Cc1ccc(OC)cc1 (stereo not given in full)
2. O=C(N1CCOCC1)[C@@]1(Cc2ccccc2)COC(c2ccc(OCCCO)cc2)=N1
3. COc1ccc([Si](C)(C)[C@H]2[C@H](CCO)O[C@@]3(C(=O)N(Cc4cccc(N5C(=O)c6ccccc6Oc6ccccc65)c4)c4ccccc43)[C@@H]2C)cc1
4. C=C(CCCC)/C(=C/C[C@H](OC(=O)c1ccncc1)c1cccc(OCCO)c1)c1cnc2ccccc2c1
5. NC(=O)N1C(=O)C2C(C1=O)C1C=C(CCCO)C2C(C2CC2)N1Cc1sc2ccccc2c1Cl (stereo not given)
6. CC(C)=C1C(=O)C(c2ccccc2)=C2CN3C(=O)N(CCc4ccccc4)C(=O)[C@]3(C)[C@H]21

Output line:
1. 0.057
2. 0.666
3. 0.742
4. 1.15
5. 0.903
6. 1.27

----------
# Assay Name: probe aNOTCH2 binding on compound microarray – biochemical, small-molecule microarray, 635/667 nm fluorescence, primary screen (AID 1121);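 further: score merges feature fluorescence read at 667 nm with its signal to noise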
# Experimental Setup: higher = more signal
Test Readout: composite z-score
One number for each entry.

COC(=O)[C@@]1(Cc2ccc(F)cc2)[C@H]2c3cc(C(=O)N4CCCC4)n(CCc4ccccn4)c3C[C@H]2CN1C(=O)c1ccccc1 ... 0.186
COCCCNC(=O)[C@@]1(CCS(=O)(=O)c2ccccc2)COC(c2ccc(OCCCO)cc2)=N1 ... 0.0551
C=CCC(OC(C)=O)[C@@H]1[C@@H](N(Cc2cccc3ccccc23)C(=O)c2ccc(-c3ccccc3)cc2)c2cc(OCCCO)ccc2N1C(=O)Cc1ccc2ccccc2c1 (some centres not stated) ... -0.0809
COc1ccc(C(=O)Nc2cccc(CN3C(=O)[C@@]4(O[C@@H](CC(=O)N5CCC[C@H]5CO)[C@H]([Si](C)(C)c5ccc(OC)cc5)[C@H]4C)c4ccccc43)c2)cc1 ... -0.11

Lab note: each compound below needs its composite z-score filled in.
1. CCCCC(=C=CC[C@H](O)c1ccc(CO)o1)CCO
2. C=C(CCCC)/C(=C/C[C@H](OC(C)=O)c1cccc(OCCO)c1)c1cnc2ccccc2c1

Output line:
-0.0404
-0.149

Input line: // composite z-score lookup, key: CC(C)[Si](C#CCCc1ccccc1)(O[C@H](c1ccccc1)c1cn(Cc2ccccc2)nn1)C(C)C
Output line: -0.115

Entry source: PubChem BioAssay
